Sourced from paper PMC8365602

- Assay system: 5-LOX (Homo sapiens)
- Sequence (P09917 1-674): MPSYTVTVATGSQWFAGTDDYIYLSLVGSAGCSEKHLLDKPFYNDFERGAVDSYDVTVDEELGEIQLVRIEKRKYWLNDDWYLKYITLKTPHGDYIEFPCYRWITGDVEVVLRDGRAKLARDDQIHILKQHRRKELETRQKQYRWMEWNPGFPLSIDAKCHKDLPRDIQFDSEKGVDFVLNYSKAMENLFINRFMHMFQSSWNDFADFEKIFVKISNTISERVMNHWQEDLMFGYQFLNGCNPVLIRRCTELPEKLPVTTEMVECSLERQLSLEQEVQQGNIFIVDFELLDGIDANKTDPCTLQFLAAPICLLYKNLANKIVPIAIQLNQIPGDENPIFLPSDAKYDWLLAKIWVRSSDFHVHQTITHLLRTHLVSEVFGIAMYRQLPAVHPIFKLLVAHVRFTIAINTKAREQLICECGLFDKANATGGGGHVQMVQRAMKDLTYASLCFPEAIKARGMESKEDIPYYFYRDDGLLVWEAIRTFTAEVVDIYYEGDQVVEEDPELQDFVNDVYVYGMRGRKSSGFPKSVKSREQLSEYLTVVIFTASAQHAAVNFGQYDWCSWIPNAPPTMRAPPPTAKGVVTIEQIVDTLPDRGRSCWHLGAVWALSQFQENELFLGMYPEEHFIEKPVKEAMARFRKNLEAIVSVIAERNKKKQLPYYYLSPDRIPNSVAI
- Test: 5-LOX product formation in activated PMNL;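 note: freshly isolated human PMNL in PBS pH 7.4 plus glucose, preincubated 10 min at 37 °C with compound, 5-LOX products (all-trans LTB4 isomers, 5-HETE) quantified by RP-HPLC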
- Particulars: PMNL, read-out: 5-LOX PMNL residual activity at 3 µM (Table S1)
Quantity name: remaining activity at 3 µM (%)

(A) Cc1cc(O)c(C=O)c2c1O[C@](C)(CCC[C@H](C)CCC[C@H](C)CCCC(C)C)CC2
(B) C/C(=C/CC/C(C)=C/CC/C(C)=C/CC[C@]1(C)CCc2cc(O)c(C)c(C)c2O1)CO [Compound 10d]
Exercise: # argmax over remaining activity at 3 µM for candidates A and B Record your answer as the label of the chosen record.
Solution: A
(A: 92.2%, B: 1.1%)

(P) C/C(=C\CC/C(C)=C/CC/C(C)=C/CC[C@]1(C)CCc2c(C)c(O)cc(C)c2O1)CO [Compound 10b]
(Q) Cc1c(C)c2c(c(C)c1O)CC[C@@](C)(CCC[C@H](C)CCC[C@H](C)CCCC(C)C)O2
(R) CC(C)=CCC/C(C)=C/CC/C(C)=C/CC[C@]1(C)CCc2c(C)c(O)cc(C)c2O1
Exercise: Please put the entries in order of rising remaining activity at 3 µM. Write out the labels following the order that was asked for.
Solution: P, R, Q
